- ASSAY: Plasma protein binding, dog
- Type: in vitro ADME
RESULT TYPE: fraction unbound
Respond numerically, and do not add a unit to the figure.

Give the reported value of fraction unbound for this record: Cc1cc(Nc2ccc(S(F)(F)(F)(F)F)cc2)n2nc(C(C)(F)F)nc2n1 0.006

====

- SYSTEM TESTED: UniProt F1S3B0
- Sequence (F1S3B0 1-395): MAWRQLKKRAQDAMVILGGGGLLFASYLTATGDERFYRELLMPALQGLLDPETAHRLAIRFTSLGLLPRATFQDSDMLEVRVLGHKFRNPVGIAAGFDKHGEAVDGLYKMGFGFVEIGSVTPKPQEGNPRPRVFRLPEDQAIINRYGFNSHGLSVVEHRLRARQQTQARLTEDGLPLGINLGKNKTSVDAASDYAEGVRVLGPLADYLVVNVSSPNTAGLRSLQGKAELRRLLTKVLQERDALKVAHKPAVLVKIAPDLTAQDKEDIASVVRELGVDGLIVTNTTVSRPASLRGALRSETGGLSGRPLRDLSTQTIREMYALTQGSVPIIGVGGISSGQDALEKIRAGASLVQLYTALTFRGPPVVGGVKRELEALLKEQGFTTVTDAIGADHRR
pIC50: −log10 of the molar value.
RESULT TYPE: pIC50

Given Cc1cc(Nc2ccc(S(F)(F)(F)(F)F)cc2)n2nc(C(C)(F)F)nc2n1 , respond with its pIC50. < 4.01

====

- SYSTEM TESTED: P. cynomolgi DHODH (Plasmodium cynomolgi, UniProt K6UE05)
RESULT TYPE: IC50 (nM)
I only need the number, in nM, no unit after it.

Recall and state the measured IC50 for Cc1cc(Nc2ccc(S(F)(F)(F)(F)F)cc2)n2nc(C(C)(F)F)nc2n1 . 12
